Tested on: ATXN3/Q75-GFP SH-SY5Y cells
method notes: Neurite outgrowth analysis, ATXN3/Q75-GFP SH-SY5Y cells
Format: cell-based, human
experimental parameters: 10 μM compound, ATXN3/Q75-GFP-expressing cells; untreated 1.8
Entries and their measured neurite process follow.

Past entries and their recorded results:
O=C(c1ccccc1)c1cc2c(O)cccc2oc1=O [LM-031, 3-benzoyl-5-hydroxychromen-2-one]
2.0–2.1
O=[N+]([O-])c1cccc2nc(/C=C/c3cc4ccccc4nc3N3CCOCC3)ccc12 [VB-037]
2.0–2.1
CCCCC/C=C\C/C=C\C/C=C\C/C=C\CCCC(=O)Nc1ccc(O)cc1 [AM404, reference compound]
2.2

The record that follows has no neurite process shown yet.
Ask | Requested field: neurite process. Item: CC(=O)/C(=C/c1ccccc1[N+](=O)[O-])Cc1c[nH]c2ccccc12 [NC009-1]
Reply | 2.0–2.1
